So I've got a bunch of binders here, and I need their Kd values.
- assayed-target: T1, human CCL17 (human, UniProt Q92583 24-94)
- T1 construct: Biotinylated in the Fab ELISAs; also called huCCL17; Bt-huCCL17
- T1 sequence: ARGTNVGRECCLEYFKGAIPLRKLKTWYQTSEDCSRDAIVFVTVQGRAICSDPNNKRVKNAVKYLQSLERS
- protocol-notes: not stated in the legend (affinities by MSD-SEA in Examples 3 and 4)

Examples from the recorded data:
binder	Kd
C17B239 (antibody, V domains shown, Full IgG1, kappa) VH: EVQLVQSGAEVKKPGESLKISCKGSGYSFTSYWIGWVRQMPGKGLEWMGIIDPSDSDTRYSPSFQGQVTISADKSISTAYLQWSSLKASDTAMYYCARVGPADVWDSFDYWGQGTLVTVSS VL: DIVMTQSPDSLAVSLGERATINCKSSQSVLSSFTNTNTLAWYQQKPGQPPKLLIYHASTRESGVPDRFSGSGSGTDFTLTISSLQAEDVAVYYCQQYLIYPSTFGQGTKVEIK	≤ 100 nM
C17B240 (antibody, V domains shown, Full IgG1, kappa) VH: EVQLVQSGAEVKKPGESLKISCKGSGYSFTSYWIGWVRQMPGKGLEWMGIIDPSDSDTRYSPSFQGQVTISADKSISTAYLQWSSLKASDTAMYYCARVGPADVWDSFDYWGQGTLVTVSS VL: DIVMTQSPDSLAVSLGERATINCKSSQSVLYSHVNYNALAWYQQKPGQPPKLLIYNASTRESGVPDRFSGSGSGTDFTLTISSLQAEDVAVYYCQQYYTLPATFGQGTKVEIK	≤ 100 nM

Note Kd for the binder shown: C17B234 (antibody, V domains shown, Full IgG1, kappa) VH: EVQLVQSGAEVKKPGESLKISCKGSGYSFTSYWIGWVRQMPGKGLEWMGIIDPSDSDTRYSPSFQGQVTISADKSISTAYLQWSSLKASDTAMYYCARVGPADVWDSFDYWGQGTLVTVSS VL: DIVMTQSPDSLAVSLGERATINCKSSQSVLLSFDNINKLAWYQQKPGQPPKLLIYNASTRESGVPDRFSGSGSGTDFTLTISSLQAEDVAVYYCQQFYSVPSTFGQGTKVEIK
≤ 100 nM
